Consider the following variants and their measured folding stability dG readings.
B1: HEEH_KT_rd6_3632 (parent)
chain: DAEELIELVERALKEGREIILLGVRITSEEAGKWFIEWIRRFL

- Variants of: B1
- ASSAY INFO: folding stability dG (cDNA display proteolysis); higher = more stable
- MEASUREMENT CONDITIONS: PBS, room temperature

{"SEQUENCE INPUT": "DAEELIELVERALKEGREIILLGVRPTSEEAGKWFIEWIRRFL [I26P]", "folding stability dG / kJ/mol": 13.3}
{"SEQUENCE INPUT": "DAEELIKLVERALKEGREIILLGVRITSEEAGKWFIEWIRRFL [E7K]", "folding stability dG / kJ/mol": 17}
{"SEQUENCE INPUT": "DAEELIELVERALKEGREIILLGVRITSEEAWKWFIEWIRRFL [G32W]", "folding stability dG / kJ/mol": 17}
{"SEQUENCE INPUT": "DAEELIELVERALKEGREIILLRVRITSEEAGKWFIEWIRRFL [G23R]", "folding stability dG / kJ/mol": 14.8}
{"SEQUENCE INPUT": "DAEELIELVERALKEGREIILLGVRITSEEAGKWFIEWQRRFL [I39Q]", "folding stability dG / kJ/mol": 11}
{"SEQUENCE INPUT": "DAEELIELVERALKEEREIILLGVRITSEEAGKWFIEWIRRFL [G16E]", "folding stability dG / kJ/mol": 13}
{"SEQUENCE INPUT": "DAEELIELVERALKEGREIILLGVRITSAEAGKWFIEWIRRFL [E29A]", "folding stability dG / kJ/mol": 16.3}
{"SEQUENCE INPUT": "DAEELIELVERALKEGREIILLGVRITSHEAGKWFIEWIRRFL [E29H]", "folding stability dG / kJ/mol": 15.4}
{"SEQUENCE INPUT": "DAEELIELVERALKEGREIILLGVRETSEEAGKWFIEWIRRFL [I26E]", "folding stability dG / kJ/mol": 13.9}
{"SEQUENCE INPUT": "DAEELIELVERALDEGREIILLGVRITSEEAGKWFIEWIRRFL [K14D]", "folding stability dG / kJ/mol": 13.6}
{"SEQUENCE INPUT": "DAEELIELVERALKEGREIILLGVAITSEEAGKWFIEWIRRFL [R25A]", "folding stability dG / kJ/mol": 15.4}
{"SEQUENCE INPUT": "DAEELIELVERALKEGREIILLGRRITSEEAGKWFIEWIRRFL [V24R]", "folding stability dG / kJ/mol": 12.6}
{"SEQUENCE INPUT": "DAEELIELVERALKEGREIILLGVRITSEEAGKWFIEWSRRFL [I39S]", "folding stability dG / kJ/mol": 11.1}
{"SEQUENCE INPUT": "DAEELIELVERALKEGREIILLGVRITSEEAGKFFIEWIRRFL [W34F]", "folding stability dG / kJ/mol": 14.3}
{"SEQUENCE INPUT": "DAEELIELVERALKQGREIILLGVRITSEEAGKWFIEWIRRFL [E15Q]", "folding stability dG / kJ/mol": 14.5}
{"SEQUENCE INPUT": "DAEELIELVERALKEGREIILLGVRITSEEAPKWFIEWIRRFL [G32P]", "folding stability dG / kJ/mol": 14.2}
